Hello, the source for this data is patent US20240391954A1, in case you need it.

In this section, each of the binders is paired with its reported MC4R selectivity vs MC1R.
testedSystem: human MC4R receptor (human, UniProt P32245 1-332)
Sequence (P32245 whole entry): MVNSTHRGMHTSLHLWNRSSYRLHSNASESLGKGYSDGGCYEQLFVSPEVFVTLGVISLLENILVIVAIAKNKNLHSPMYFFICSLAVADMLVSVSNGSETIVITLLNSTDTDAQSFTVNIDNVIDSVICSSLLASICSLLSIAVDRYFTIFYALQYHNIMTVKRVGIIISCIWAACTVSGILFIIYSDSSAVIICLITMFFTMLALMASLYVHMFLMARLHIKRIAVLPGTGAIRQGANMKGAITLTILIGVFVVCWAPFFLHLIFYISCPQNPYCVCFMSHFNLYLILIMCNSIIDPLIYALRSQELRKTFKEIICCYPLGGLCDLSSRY
procedureDetails: cell-based or functional assay
Positions of bridges follow the written chain, without caps; N, C: chain ends. Non-standard residues stand in square brackets, D forms with d. dPhe(4-Br) = N[C@H](Cc1ccc(Br)cc1)C(=O)O; d2Nal = N[C@H](Cc1ccc2ccccc2c1)C(=O)O; NMeR = CN[C@@H](CCCNC(=N)N)C(=O)O; Cit = NC(=O)NCCC[C@H](N)C(=O)O

Solved entries:
binder: Ac-RC[dA]RF[NMeR][dW]C-NH2 (disulfide 2-8; not fully specified (residue 5)) [CTX-1251]
MC4R selectivity vs MC1R: 0.11

binder: Ac-RC[dA]R[dPhe(4-Br)]R[dW]CRFG-OH (disulfide 2-8; SMILES CC(=O)N[C@@H](CCCNC(=N)N)C(=O)N[C@H]1CSSC[C@@H](C(=O)N[C@@H](CCCNC(=N)N)C(=O)N[C@@H](Cc2ccccc2)C(=O)NCC(=O)O)NC(=O)[C@@H](Cc2c[nH]c3ccccc23)NC(=O)[C@H](CCCNC(=N)N)NC(=O)[C@@H](Cc2ccc(Br)cc2)NC(=O)[C@H](CCCNC(=N)N)NC(=O)[C@@H](C)NC1=O) [CTX-1219]
MC4R selectivity vs MC1R: 1

binder: Ac-RC[dA]R[dPhe(4-Br)][Cit][dW]C-NH2 (disulfide 2-8; SMILES CC(=O)N[C@@H](CCCNC(=N)N)C(=O)N[C@H]1CSSC[C@@H](C(N)=O)NC(=O)[C@@H](Cc2c[nH]c3ccccc23)NC(=O)[C@H](CCCNC(N)=O)NC(=O)[C@@H](Cc2ccc(Br)cc2)NC(=O)[C@H](CCCNC(=N)N)NC(=O)[C@@H](C)NC1=O) [CTX-1253]
MC4R selectivity vs MC1R: 0.57

binder: Ac-RC[dA]R[dW]RWC-NH2 (disulfide 2-8; SMILES CC(=O)N[C@@H](CCCNC(=N)N)C(=O)N[C@H]1CSSC[C@@H](C(N)=O)NC(=O)[C@H](Cc2c[nH]c3ccccc23)NC(=O)[C@H](CCCNC(=N)N)NC(=O)[C@@H](Cc2c[nH]c3ccccc23)NC(=O)[C@H](CCCNC(=N)N)NC(=O)[C@@H](C)NC1=O) [CTX-1274]
MC4R selectivity vs MC1R: 0.19

binder: Ac-RC[dA]P[dPhe(4-Br)]R[dW]C-NH2 (disulfide 2-8; SMILES CC(=O)N[C@@H](CCCNC(=N)N)C(=O)N[C@H]1CSSC[C@@H](C(N)=O)NC(=O)[C@@H](Cc2c[nH]c3ccccc23)NC(=O)[C@H](CCCNC(=N)N)NC(=O)[C@@H](Cc2ccc(Br)cc2)NC(=O)[C@@H]2CCCN2C(=O)[C@@H](C)NC1=O) [CTX-1249]
MC4R selectivity vs MC1R: 5.08

--- query ---
What measured MC4R selectivity vs MC1R goes with Ac-RC[dA]R[dPhe(4-Br)]R[d2Nal]C-NH2 (disulfide 2-8; SMILES CC(=O)N[C@@H](CCCNC(=N)N)C(=O)N[C@H]1CSSC[C@@H](C(N)=O)NC(=O)[C@@H](Cc2ccc3ccccc3c2)NC(=O)[C@H](CCCNC(=N)N)NC(=O)[C@@H](Cc2ccc(Br)cc2)NC(=O)[C@H](CCCNC(=N)N)NC(=O)[C@@H](C)NC1=O) [CTX-1254] ?
0.26
